Data provenance: paper PMC2362906

Reported pIC50 values follow for various compounds
# assayed.system: human 17α-hydroxylase/C17,20-lyase (P450c17) expressed in LNCaP-CYP17 cells (Homo sapiens)
# method: [3H]-acetic acid releasing assay (AARA) with LNCaP-CYP17 cells
# stated.conditions: LNCaP-CYP17 cells, 7 μM [21-3H]17-OHP5, 16 h; mean ± s.e.m., three experiments
pIC50 field: float, defined as -log10 of concentration (mol/L).

C[C@]12CC[C@H](O)CC1=CC[C@@H]1[C@@H]2CC[C@]2(C)C(n3ccnc3)=CC[C@@H]12 | 8.90

// moving on: another record for pIC50
Prompt: Could you share which pIC50 value was measured for C[C@]12CC[C@H](O)CC1=CC[C@@H]1[C@@H]2CC[C@]2(C)C(n3ccnn3)=CC[C@@H]12 ?
Completion: 8.10

---

# assayed.system: human 17α-hydroxylase/C17,20-lyase (P450c17) expressed in LNCaP-CYP17 cells (Homo sapiens)
# Sequence (P05093 9-508 limits assumed): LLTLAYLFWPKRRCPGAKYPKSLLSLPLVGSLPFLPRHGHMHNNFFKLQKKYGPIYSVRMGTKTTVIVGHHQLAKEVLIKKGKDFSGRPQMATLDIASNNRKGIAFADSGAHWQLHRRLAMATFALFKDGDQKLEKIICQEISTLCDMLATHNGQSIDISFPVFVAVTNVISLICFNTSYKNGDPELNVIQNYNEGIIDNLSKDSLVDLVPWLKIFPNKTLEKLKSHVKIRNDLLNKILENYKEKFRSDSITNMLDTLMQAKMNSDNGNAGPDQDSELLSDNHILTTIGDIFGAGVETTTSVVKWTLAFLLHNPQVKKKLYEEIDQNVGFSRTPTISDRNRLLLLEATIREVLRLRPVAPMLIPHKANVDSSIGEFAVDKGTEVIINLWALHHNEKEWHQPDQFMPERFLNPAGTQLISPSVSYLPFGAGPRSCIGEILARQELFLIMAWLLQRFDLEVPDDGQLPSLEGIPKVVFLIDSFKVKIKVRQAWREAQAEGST
# method: [3H]-acetic acid releasing assay (AARA) with LNCaP-CYP17 cells
# stated.conditions: LNCaP-CYP17 cells, 7 μM [21-3H]17-OHP5, 16 h; mean ± s.e.m., three experiments
Entries and their measured pIC50 follow.
Hey, just a heads up that pIC50 is the negative log base 10 of the concentration in molar.

Below, each entry is followed by its recorded pIC50 result.
C[C@]12CCC(=O)C=C1CCC1C2CC[C@]2(C)C(n3ccnc3)=CCC12 (stereo partly shown) [VN/108-1] | 8.53
C[C@]12CCC(=O)C=C1CC[C@@H]1[C@@H]2CC[C@]2(C)C(n3ccnn3)=CC[C@@H]12 [VN/109-1] | 8.27
C[C@]12CCC(=O)C=C1CC[C@@H]1[C@@H]2CC[C@]2(C)C(n3cncn3)=CC[C@@H]12 [VN/107-1] | 7.91

Prompt: // query pIC50 value for entry C[C@]12CC[C@H](O)CC1=CC[C@@H]1[C@@H]2CC[C@]2(C)C(n3cncn3)=CC[C@@H]12 [VN/63-1]
Completion: 7.33

---

# Test system: serum DHT
# method: Serum DHT (RIA) in SCID mice
# Type: in vivo, male SCID mice
# stated.conditions: Table 2, first experiment, 28 days of treatment, 50 mg kg-1 day-1; control 243.8
As shown below, each of these molecules has a reported Serum DHT value.
Hi, when you answer, please include the unit after the number. Thanks!

Prompt: # query: Serum DHT of entry CC(C)(C)NC(=O)[C@H]1CC[C@H]2[C@@H]3CC[C@H]4NC(=O)C=C[C@]4(C)[C@H]3CC[C@]12C [Finasteride, reference compound]
Completion: 137.0 pg/mL

Prompt: May I ask what Serum DHT has been recorded for C[C@]12CCC(=O)C=C1CCC1C2CC[C@]2(C)C(n3ccnc3)=CCC12 (some centres unmarked) [VN/108-1] ?
Completion: 122.1 pg/mL

Prompt: If you can, please state the reported Serum DHT value of C[C@]12CC[C@H](O)CC1=CC[C@@H]1[C@@H]2CC[C@]2(C)C(n3ccnc3)=CC[C@@H]12 [VN/85-1] .
Completion: 143.7 pg/mL

Prompt: # get_value(readout='Serum DHT', item= CC(=O)N1CCN(c2ccc(OCC3COC(Cn4ccnc4)(c4ccc(Cl)cc4Cl)O3)cc2)CC1 (centres unmarked) [Ketoconazole, reference compound] )
Completion: 224.3 pg/mL

Prompt: Could you share which Serum DHT value was measured for C[C@]12CC[C@H](O)CC1=CC[C@@H]1[C@@H]2CC[C@]2(C)C(n3ccnn3)=CC[C@@H]12 [VN/87-1] ?
Completion: 128.6 pg/mL
